# credit: patent US9695191B2

condition.summary: human, 10 μM
Parameter: Plasma Stability 240 min hum. Scope: all listed entries.
Please make sure the unit comes right after the number.

CN1CC(=O)N2C[C@@H](NC(=O)OC(C)(C)C)C[C@H]2COc2ccc(F)cc2C(=O)N(C)[C@H](C(=O)NCCc2c[nH]c3ccccc23)CCC1=O    85%
CCCCC(=O)N[C@@H]1C[C@H]2COc3ccc(F)cc3C(=O)N(C)[C@H](C(=O)N(C)CCN(C)C)CCC(=O)N(C)CC(=O)N2C1    65%

Now for the molecule whose Plasma Stability 240 min hum we want.
Input line: Which Plasma Stability 240 min hum is reported for this molecule? "CN1CC(=O)N2C[C@H](NC(=O)CN3CCCC3)C[C@H]2COc2ccc(cc2)C(=O)N(C)[C@H](C(=O)NCc2ccncc2)CCC1=O"
Output line: 92%
